Target: full-length human RORγt (Homo sapiens (Human), UniProt P51449)
Sequence (P51449 other isoform, or with tags, fused parts or gaps): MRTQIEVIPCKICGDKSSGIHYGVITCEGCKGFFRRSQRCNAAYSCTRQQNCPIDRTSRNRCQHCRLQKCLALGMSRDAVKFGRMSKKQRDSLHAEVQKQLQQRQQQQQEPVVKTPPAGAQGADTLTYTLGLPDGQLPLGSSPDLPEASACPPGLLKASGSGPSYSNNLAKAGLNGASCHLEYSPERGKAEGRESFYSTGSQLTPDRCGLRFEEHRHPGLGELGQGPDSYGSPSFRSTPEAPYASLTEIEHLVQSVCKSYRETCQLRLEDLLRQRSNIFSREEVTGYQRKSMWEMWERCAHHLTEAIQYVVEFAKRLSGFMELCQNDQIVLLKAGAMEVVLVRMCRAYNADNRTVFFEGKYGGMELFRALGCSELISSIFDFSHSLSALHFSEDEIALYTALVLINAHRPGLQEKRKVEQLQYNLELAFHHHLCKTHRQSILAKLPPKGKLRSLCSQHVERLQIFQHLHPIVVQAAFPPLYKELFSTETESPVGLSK
Experiment: RORγt (full-length human) reporter assay, Conditions B or C
Format: cell-based
Details: read-out: RORγt (FL) Reporter Assay B or C, IC50
So basically, if IC50 comes in under 20 nM it's yes (1), and if it's 20 nM or more it's no (0).

Q: Threshold test, IC50 < 20 nM: "C[C@H]1CCCN1C(=O)c1nc(C(=O)NCC(C)(C)O)sc1-c1cnc(NCC2(C(F)(F)F)CC2)cc1C(F)F"
Result: yes (1)

Q: Threshold test, IC50 < 20 nM: C[C@H]1CCCN1C(=O)c1nc(C(=O)N2CCC(C)(O)C2)sc1-c1cnc(NC(C)(C)C)cc1C(F)(F)F (stereo partly drawn)
Result: no (0)

Q: Threshold test, IC50 < 20 nM: "C[C@H]1CCCN1C(=O)c1nc(C(=O)NC2(C)COC2)sc1-c1cnc(NC(C)(C)C)cc1C(F)(F)F"
Result: yes (1)

Q: Threshold test, IC50 < 20 nM: "CC[C@H](Nc1cc(C(F)F)c(-c2sc(C(=O)N[C@H]3CC[C@H](O)C3)nc2C(=O)N2CC(F)(F)C[C@@H]2C)cn1)C(F)(F)F"
Result: no (0)

Q: Threshold test, IC50 < 20 nM: "C[C@H](Nc1cc(C(F)F)c(-c2sc(C(=O)N[C@H]3CC[C@H](O)C3)nc2C(=O)N2C3CCC2CC3)cn1)C(F)(F)F"
Result: no (0)

Q: Threshold test, IC50 < 20 nM: "C[C@H]1CC(F)(F)CN1C(=O)c1nc(C(=O)NCC(C)(C)O)sc1-c1cnc(NCC2(C(F)(F)F)CC2)cc1C(F)F"
Result: yes (1)

###

Task for the reader: assign each of the following molecules its reported pIC50.
Target: full-length human RORγt (Homo sapiens (Human))
Assay: RORγt (full-length human) reporter assay, Conditions B or C
Format: cell-based
Conditions: Conditions B or C; read-out: RORγt (FL) Reporter Assay B or C, IC50
Entry type: numeric. Quantity: pIC50, the -log10 of concentration in molar units.

Q: Any idea what pIC50 was measured for "C[C@H](Nc1cc(C(F)F)c(-c2sc(C(=O)N[C@H](C)C(C)(C)O)nc2C(=O)N2CC(F)(F)C[C@@H]2C)cn1)C1CC1" ?
Result: 7.06

Q: Any idea what pIC50 was measured for "C[C@H]1CCCCN1C(=O)c1nc(C(=O)NCC(C)(C)O)sc1-c1cnc(NCC(C)(C)C)cc1C(F)F" ?
Result: 8.01

Q: Any idea what pIC50 was measured for "C[C@H](NC(=O)c1nc(C(=O)N2CC(F)(F)C[C@@H]2C)c(-c2cnc(N[C@@H](C)C(F)(F)F)cc2C(F)F)s1)C(C)(C)O" ?
Result: 7.18

Q: Any idea what pIC50 was measured for "C[C@H]1CC(F)(F)CN1C(=O)c1nc(C(=O)N[C@H](C)C(C)(C)O)sc1-c1cnc(NC2(C)CCC2)cc1C(F)(F)F" ?
Result: 7.57

Q: Any idea what pIC50 was measured for C[C@H](Nc1cc(C(F)F)c(-c2sc(C(=O)N[C@H]3C[C@@H]3O)nc2C(=O)N2CCC[C@@H]2C)cn1)C(F)(F)F (relative stereo) [Example 223] ?
Result: 7.00

Q: Any idea what pIC50 was measured for CC[C@H](Nc1cc(C(F)F)c(-c2sc(C(=O)N[C@@H]3C[C@@H]3O)nc2C(=O)N2CCC[C@@H]2C)cn1)C(F)(F)F (relative stereo) ?
Result: 7.85

Q: Any idea what pIC50 was measured for C[C@@H](Nc1cc(C(F)(F)F)c(-c2sc(C(=O)NCC(C)(C)O)nc2C(=O)N2C3CCC2CC3)cn1)C1CCC1 (stereo in doubt) ?
Result: 7.41

Q: Any idea what pIC50 was measured for "CC(C)(O)CNC(=O)c1nc(C(=O)N2C3CCC2CC3)c(-c2cnc(NC(C3CC3)C3CC3)cc2C(F)(F)F)s1" ?
Result: 7.92

Q: Any idea what pIC50 was measured for "CC(C)(O)CNC(=O)c1nc(C(=O)N2C3CCC2CC3)c(-c2cnc(NC3(C)CCC3)cc2C(F)(F)F)s1" ?
Result: 7.96

Q: Any idea what pIC50 was measured for "C[C@H]1CC(F)(F)CN1C(=O)c1nc(C(=O)NCC(C)(C)O)sc1-c1cnc(NCC(C)(C)C(F)(F)F)cc1C(F)(F)F" ?
Result: 7.60

Q: Any idea what pIC50 was measured for "CC[C@H](Nc1cc(C(F)F)c(-c2sc(C(=O)N[C@H]3CC[C@H](O)C3)nc2C(=O)N2C3CCC2CC3)cn1)C(F)(F)F" ?
Result: 7.82

Q: Any idea what pIC50 was measured for C[C@@H](Nc1cc(C(F)(F)F)c(-c2sc(C(=O)NCC(C)(C)O)nc2C(=O)N2CCC[C@@H]2C)cn1)C1CCC1 (relative stereo) ?
Result: 7.82

###

Biological target: human RORγt ligand binding domain (RORγt LBD) (Homo sapiens (Human), UniProt P51449)
Sequence (P51449 other isoform, or with tags, fused parts or gaps): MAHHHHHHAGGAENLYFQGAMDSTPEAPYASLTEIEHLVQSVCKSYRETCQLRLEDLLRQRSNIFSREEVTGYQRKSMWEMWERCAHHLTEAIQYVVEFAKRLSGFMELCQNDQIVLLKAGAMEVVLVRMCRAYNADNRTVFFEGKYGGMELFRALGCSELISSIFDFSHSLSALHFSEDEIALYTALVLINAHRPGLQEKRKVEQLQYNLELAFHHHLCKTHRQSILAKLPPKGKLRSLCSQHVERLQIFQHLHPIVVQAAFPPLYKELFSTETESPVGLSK
Assay: RORγt ThermoFluor® assay (thermal shift binding)
Settings: read-out: ThermoFluor® Assay, Kd
Task for the reader: assign each of the following compounds its reported Kd.
Use nM as the unit, but write only the number.

Q: Any idea what Kd was measured for "C[C@@H](Nc1cc(C(F)(F)F)c(-c2sc(C(=O)NCC(C)(C)O)nc2C(=O)N2CCC(F)CC2)cn1)C1CC1" ?
Result: 22

Q: Any idea what Kd was measured for "CC[C@@H](Nc1cc(C(F)F)c(-c2sc(C(=O)N[C@H]3C[C@H](O)C3)nc2C(=O)N2CCC[C@@H]2C)cn1)C(F)(F)F" ?
Result: 6.8

Q: Any idea what Kd was measured for "C[C@H]1CCCN1C(=O)c1nc(C(=O)NC2CN(C)C2)sc1-c1cnc(NC(C)(C)C)cc1C(F)(F)F" ?
Result: 47

Q: Any idea what Kd was measured for CC[C@H](Nc1cc(C(F)F)c(-c2sc(C(=O)N[C@H]3CC[C@H]3O)nc2C(=O)N2CCC[C@@H]2C)cn1)C(F)(F)F (relative stereo) ?
Result: 1.6

Q: Any idea what Kd was measured for "CC(C)(O)CNC(=O)c1nc(C(=O)N2C3CCC2CC3)c(-c2cnc(NC3(C)CCC3)cc2C(F)F)s1" ?
Result: 2.7

Q: Any idea what Kd was measured for "C[C@H](Nc1cc(C(F)F)c(-c2sc(C(=O)N[C@@H]3CCC[C@H]3O)nc2C(=O)N2C3CCC2CC3)cn1)C(F)(F)F" ?
Result: 2.7

Q: Any idea what Kd was measured for C[C@H](Nc1cc(C(F)F)c(-c2sc(C(=O)N[C@H]3COC[C@H]3O)nc2C(=O)N2CCC[C@@H]2C)cn1)C(F)(F)F (single isomer, unassigned) ?
Result: 8.7

Q: Any idea what Kd was measured for C[C@H](Nc1cc(C(F)F)c(-c2sc(C(=O)N[C@@H]3CC[C@@H]3O)nc2C(=O)N2CCC[C@@H]2C)cn1)C(F)(F)F (relative stereo) ?
Result: 4.2

Q: Any idea what Kd was measured for C[C@H](Nc1cc(C(F)F)c(-c2sc(C(=O)N[C@H]3CC[C@H]3O)nc2C(=O)N2CCC[C@@H]2C)cn1)C(F)(F)F (relative stereo) ?
Result: 12

Q: Any idea what Kd was measured for C[C@H]1CCCN1C(=O)c1nc(C(=O)NCC(C)(C)O)sc1-c1cnc(NC2CCCC2(F)F)cc1C(F)(F)F (stereo partly shown) ?
Result: 6.2

Q: Any idea what Kd was measured for "CC(C)(O)CNC(=O)c1nc(C(=O)N2CCC(F)CC2)c(-c2cnc(NC3CCC3)cc2C(F)(F)F)s1" ?
Result: 77

Q: Any idea what Kd was measured for "C[C@H](NC(=O)c1nc(C(=O)N2CCC[C@@H]2C)c(-c2cnc(NC3(C)CCC3)cc2C(F)F)s1)C(C)(C)O" ?
Result: 1.8

Q: Any idea what Kd was measured for "CC[C@H](Nc1cc(C(F)F)c(-c2sc(C(=O)N[C@H](C)C(C)(C)O)nc2C(=O)N2C3CCC2CC3)cn1)C(F)(F)F" ?
Result: 2.8

Q: Any idea what Kd was measured for "C[C@H]1CCCN1C(=O)c1nc(C(=O)NCC(C)(C)O)sc1-c1cnc(NCC(C)(C)C)cc1C(F)(F)F" ?
Result: 1.3

Q: Any idea what Kd was measured for "C[C@H]1CCCN1C(=O)c1nc(C(=O)N[C@H](C)C(C)(C)O)sc1-c1cnc(N[C@H](C)C(F)(F)F)cc1C(F)F" ?
Result: 10

Q: Any idea what Kd was measured for "O=C(N[C@@H]1CC[C@@H](O)C1)c1nc(C(=O)N2C3CCC2CC3)c(-c2cnc(N[C@@H](C3CC3)C(F)(F)F)cc2C(F)F)s1" ?
Result: 0.44

Q: Any idea what Kd was measured for "C[C@H]1CCCN1C(=O)c1nc(C(=O)NCC(C)(C)O)sc1-c1cnc(N[C@H](C)C(C)(C)C)cc1C(F)F" ?
Result: 3.4

Q: Any idea what Kd was measured for CC(C)(O)CNC(=O)c1nc(C(=O)N2CCC(F)CC2)c(-c2cnc(NC3CCCCC3(F)F)cc2C(F)(F)F)s1 (stereo not shown) ?
Result: 9.5

Q: Any idea what Kd was measured for "CC[C@H](Nc1cc(C(F)(F)F)c(-c2sc(C(=O)NCC(C)(C)O)nc2C(=O)N2CCCC[C@@H]2C)cn1)C(F)(F)F" ?
Result: 0.2

Q: Any idea what Kd was measured for "CC(C)(O)CNC(=O)c1nc(C(=O)N2CCC(F)CC2)c(-c2cnc(NC3CCCCC3)cc2C(F)(F)F)s1" ?
Result: 9.6

Q: Any idea what Kd was measured for "C[C@H]1CCCN1C(=O)c1nc(C(=O)N2C[C@@H](O)[C@H](F)C2)sc1-c1cnc(NC(C)(C)C)cc1C(F)(F)F" ?
Result: 9.2

Q: Any idea what Kd was measured for "C[C@H]1CC(F)(F)CN1C(=O)c1nc(C(=O)NCC(C)(C)O)sc1-c1cnc(NC2(C)CCC2)cc1C(F)F" ?
Result: 1.8

Q: Any idea what Kd was measured for C[C@H]1CCCN1C(=O)c1nc(C(=O)NC2CCC2O)sc1-c1cnc(NC(C)(C)C)cc1C(F)(F)F (stereo partly shown) ?
Result: 0.7

Q: Any idea what Kd was measured for "O=C(NC1CCS(=O)(=O)CC1)c1nc(C(=O)N2C3CCC2CC3)c(-c2cnc(N[C@@H](C3CC3)C(F)(F)F)cc2C(F)F)s1" ?
Result: 1

Q: Any idea what Kd was measured for "C[C@H](CO)NC(=O)c1nc(C(=O)N2CCC[C@@H]2C)c(-c2cnc(NC(C)(C)C)cc2C(F)(F)F)s1" ?
Result: 1.4
